test target: IDO1 (Homo sapiens)
assay notes: IDO1 Cellular Assay in Hela Cells Stimulated with IFNγ
Format: cell-based
measurement setup: IFNγ 100 ng/mL, 300 uM L-tryptophan, about 48 hours, fluorescence readout, read-out: IDO1 HELA Cell Assay, IC50
pIC50: −log10 of the molar value.
experimental readout: pIC50

Solved cases below.
Cc1cc(C(=O)NC23CC([C@H](C)C(=O)Nc4ccc(F)cc4)(C2)C3)ccc1F | 6.73
C[C@H](C(=O)Nc1ccc(F)c(F)c1)C12CC(NC(=O)c3ccc(Cl)c(Cl)c3)(C1)C2 | 6.59

1. C[C@H](C(=O)Nc1ccc(F)cc1)C12CC(NC(=O)c3cccc(Cl)c3F)(C1)C2
2. O=C(NC12CC(C3(C(=O)Nc4ccc(F)c(F)c4)COC3)(C1)C2)c1cccc(Cl)c1
Request: Out of 1 and 2 , name the one with the higher pIC50. I would appreciate it if you answered with the label of your choice.
Result: 2
(2: 7.45, 1: 6.65)

====

test target: IDO1 (Homo sapiens, UniProt P14902)
Sequence (P14902 whole entry): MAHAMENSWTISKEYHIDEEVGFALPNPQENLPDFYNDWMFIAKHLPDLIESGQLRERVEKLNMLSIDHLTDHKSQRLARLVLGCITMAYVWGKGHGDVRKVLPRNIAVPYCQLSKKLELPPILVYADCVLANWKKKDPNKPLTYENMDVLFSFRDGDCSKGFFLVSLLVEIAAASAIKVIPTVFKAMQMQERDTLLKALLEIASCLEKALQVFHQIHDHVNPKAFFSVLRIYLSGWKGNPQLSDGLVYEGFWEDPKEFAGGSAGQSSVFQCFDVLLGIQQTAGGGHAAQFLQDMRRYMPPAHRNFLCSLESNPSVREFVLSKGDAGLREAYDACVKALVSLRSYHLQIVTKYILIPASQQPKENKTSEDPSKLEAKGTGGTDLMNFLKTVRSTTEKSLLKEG
assay notes: IDO1 Cellular Assay in Hela Cells Stimulated with IFNγ
Assay type: cell-based
measurement setup: IFNγ 100 ng/mL, 300 uM L-tryptophan, about 48 hours, fluorescence readout, read-out: IDO1 HELA Cell Assay, IC50
experimental readout: IC50 (nM)

Use the examples below as a reference point.
Cc1cc(C(=O)NC23CC([C@@H](C)C(=O)Nc4ccc(F)cc4)(C2)C3)ccc1Cl [Example 37] | 135
CC(C(=O)Nc1ccc(F)cc1)C12CC(NC(=O)c3cccc4cncn34)(C1)C2 (stereo not shown) | 34.2
C[C@H](C(=O)Nc1ccc(F)cc1)C12CC(NC(=O)c3cncc(C(F)(F)F)c3)(C1)C2 | 13.9
CC(C(=O)Nc1ccc(Cl)nc1)C12CC(NC(=O)c3ccc(Cl)c(Cl)c3)(C1)C2 (single isomer, unassigned) | 4.46
C[C@H](C(=O)Nc1ccc(F)cc1)C12CC(NC(=O)Nc3ccc(F)c(F)c3)(C1)C2 | 30.3

A. C[C@H](C(=O)Nc1ccc(F)cc1)C12CC(NC(=O)c3ccc(F)c(F)c3)(C1)C2
B. CC(C(=O)Nc1ccc(F)cc1)C12CC(NC(=O)c3cccc4c3CC(=O)N4)(C1)C2 (stereo not shown)
Request: Could you determine which record has the numerically smaller IC50? Candidates: A and B Answer = label.
Result: A

====

test target: IDO1 (Homo sapiens, UniProt P14902)
assay notes: IDO1 Cellular Assay in Hela Cells Stimulated with IFNγ
Assay type: cell-based
measurement setup: IFNγ 100 ng/mL, 300 uM L-tryptophan, about 48 hours, fluorescence readout, read-out: IDO1 HELA Cell Assay, IC50
experimental readout: IC50 (nM)

Would you please look over these solved cases?
Cc1nc(C(=O)NC23CC(C(C)C(=O)Nc4ccc(F)cc4)(C2)C3)cs1 (stereo not shown) | 147
CC(C(=O)Nc1ccc(Cl)nc1)C12CC(NC(=O)c3cccc(Cl)c3)(C1)C2 (single isomer, unassigned) [Example 16] | 183

a. CC(C)(C(=O)Nc1ccc(F)cc1)C12CC(NC(=O)c3ccc(Cl)c(Cl)c3)(C1)C2
b. COc1cc(C(=O)NC23CC(C(C)C(=O)Nc4ccc(F)cc4)(C2)C3)ccn1 (stereo not shown)
Request: Choose between a and b : whose measured IC50 value is numerically larger? Mark your selection by writing its label.
Result: b
(b: 178 nM, a: 16.9 nM)

Where do these numbers come from? They come from patent US11478461B2.
